Data origin, for the record: patent US11787826B2

Tested on: HT-29 (human colon cancer cells)
Type: cell-based
CONDITION_PARAMETERS: HT-29 cells, MTT, 72 hours treatment
PROPERTY_MEASURED: IC50 (µM)
Please give a number only; it is taken to be in µM.

Give the reported value of IC50 for this record: N.N.[Cl][Pt][Cl] [Cisplatin, cisplatin, reference compound]
35
